Origin of the recorded values: patent US20250320312A1

Biological target: T1, Peptide 4: Biotin-AGGGGSGGGGSGGGGSAAA-Tyr-acid (N-terminal biotin; C-terminal acid)
T1 construct: control peptide without PC
T1 peptide: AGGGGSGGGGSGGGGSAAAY
Experiment: scFv ELISA
value.type: OD450 (OD450)
Quick reminder: number only, in OD450, skip the unit.

- binder: "PcOxP_DB01_G11 (scFv, V domains shown, scFv in periplasmic extract) VH: EVQLLESGGGLVQPGGSLRLSCAASGFTFSDGYMEWVRQAPGKGLEWVAASRNKNNDYTTEYADSVKGRFTISRDNSKNTLYLQMNSLRAEDTAVYYCARDYFGSSYWYFDVWGQGTLVTVSS VL: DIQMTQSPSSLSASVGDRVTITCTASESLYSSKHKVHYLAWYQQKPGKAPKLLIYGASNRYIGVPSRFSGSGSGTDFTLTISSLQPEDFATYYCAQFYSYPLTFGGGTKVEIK"
  units.label: "OD450"
  OD450: 0.06
- binder: "PcOxP_DB01_E05 (scFv, V domains shown, scFv in periplasmic extract) VH: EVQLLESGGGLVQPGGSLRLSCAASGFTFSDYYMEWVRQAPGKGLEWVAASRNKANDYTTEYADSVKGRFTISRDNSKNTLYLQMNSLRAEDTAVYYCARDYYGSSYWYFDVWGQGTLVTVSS VL: DIQMTQSPSSLSASVGDRVTITCTASESLYSSKHKVNYLAWYQQKPGKAPKLLIYGASNRYIGVPSRFSGSGSGTDFTLTISSLQPEDFATYYCAQFYQYPLTFGGGTKVEIK"
  units.label: "OD450"
  OD450: 0.06
- binder: "PcOxP_DB01_E04 (scFv, V domains shown, scFv in periplasmic extract) VH: EVQLLESGGGLVQPGGSLRLSCAASGFTFSDAYMEWVRQAPGKGLEWVAASRNKANDYTTEYADSVKGRFTISRDNSKNTLYLQMNSLRAEDTAVYYCARDYYGSSYWYFDTWGQGTLVTVSS VL: DIQMTQSPSSLSASVGDRVTITCTASESLYSSKHKVHYLAWYQQKPGKAPKLLIYGASNRYDGVPSRFSGSGSGTDFTLTISSLQPEDFATYYCAQFYSYPLTFGGGTKVEIK"
  units.label: "OD450"
  OD450: 0.05
- binder: "PcOxP_DB01_B07 (scFv, V domains shown, scFv in periplasmic extract) VH: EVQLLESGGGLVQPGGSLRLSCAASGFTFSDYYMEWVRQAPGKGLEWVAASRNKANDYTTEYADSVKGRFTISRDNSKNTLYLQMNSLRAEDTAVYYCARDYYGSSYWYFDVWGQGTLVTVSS VL: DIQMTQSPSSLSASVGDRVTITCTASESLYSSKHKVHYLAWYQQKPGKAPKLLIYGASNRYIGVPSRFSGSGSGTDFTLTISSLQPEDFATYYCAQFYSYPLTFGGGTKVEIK"
  units.label: "OD450"
  OD450: 0.06

From here, focus on the item given below.
State the recorded OD450 for this entry: PcOxP_DB01_H08 (scFv, V domains shown, scFv in periplasmic extract) VH: EVQLLESGGGLVQPGGSLRLSCAASGFTHSDFYMEWVRQAPGKGLEWVAASRNKANDYTTEYADSVKGRFTISRDNSKNTLYLQMNSLRAEDTAVYYCARDYYGSSYWYFDVWGQGTLVTVSS VL: DIQMTQSPSSLSASVGDRVTITCRASESISSSKHKHYLAWYQQKPGKAPKLLIYGASNRYIGVPSRFSGSGSGTDFTLTISSLQPEDFATYYCAQFYVYPLTFGGGTKVEIK 0.06
